# Test system: UACC-62 melanoma
# Test name: NCI-60 one-dose screen, 48 h (100 = growth as untreated, 0 = no growth, -100 = all killed)
# Measurement parameters: 10 µM
Compounds without any hit were thinned out: in the full panel of roughly 83,000, 20% have a hit.
Parameter: growth (%)
Value expressed in %; do not type the unit.

Compound | growth, %
Cc1cc(O)c(C(C)C)cc1Cl | 103

Input line: growth for CC1=CC(C)=Nc2ccc(Cl)cc2N1 ?
Output line: 103

Input line: Any idea what growth was measured for Clc1cc(Cl)c(Cl)nn1 ?
Output line: 88.7

Input line: Looking for the measured growth of COc1cccc2c1C(=O)c1c(O)c3c(c(O)c1C2=O)C[C@@](O)(C(C)=O)C[C@@H]3OC1CC(N)C(O)C(C)O1 (stereo not given in full) , can you help?
Output line: -71.8

Input line: What value of measured growth is listed for O=c1ccn(C2CC(O)C(COC(c3ccccc3)(c3ccccc3)c3ccccc3)O2)c(=O)[nH]1 (stereo not given) ?
Output line: 82.6

Input line: Bench note: what growth did O=C1C=C(O)c2ccccc2C1=O.[Ag] show?
Output line: 108

Input line: Query: growth; subject: O=C(/C=C/c1cccnc1)c1ccccc1
Output line: 103

Input line: Which growth is listed for CC(C)(C)CC(C)(C)c1ccc(OCCO)cc1 ?
Output line: 106

Input line: I'd like to know its growth. The compound in question is CCO/C=C1\SC(=S)N(c2cccc(O)c2)C1=O
Output line: 103

Input line: Which growth reading was recorded for the compound NC(=O)SCC(=O)NNc1ccccc1 ?
Output line: 70.9

====

# Test system: UACC-257 melanoma
# Test name: NCI-60 one-dose screen, 48 h (100 = growth as untreated, 0 = no growth, -100 = all killed)
# Measurement parameters: 10 µM
Compounds without any hit were thinned out: in the full panel of roughly 83,000, 20% have a hit.
Parameter: growth (%)
State the answer as a number, implicitly in %.

Please review the following examples before continuing.
Molecule | Test system | growth (%)
COc1cccc2c1C(=O)c1c(O)c3c(c(O)c1C2=O)C[C@@](O)(C(C)=O)C[C@@H]3OC1CC(N)C(O)C(C)O1 (some centres undefined) | UACC-257 melanoma | -33.3
CO[C@H](C(=O)[C@@H](O)[C@@H](C)O)[C@@H]1Cc2cc3cc(OC4CC(OC5CC(O)C(O)C(C)O5)C(O)C(C)O4)c(C)c(O)c3c(O)c2C(=O)[C@H]1OC1CC(OC2CC(OC3CC(C)(O)C(O)C(C)O3)C(O)C(C)O2)C(O)C(C)O1 (some centres undefined) | UACC-257 melanoma | 4.4
COc1cccc2c1C(=O)c1c(O)c3c(c(O)c1C2=O)C[C@@](O)(C(=O)CO)C[C@@H]3OC1CC(N)C(O)C(C)O1 (some centres undefined) | UACC-257 melanoma | 3.46

Input line: Name the reported growth value associated with the molecule CCC(C)(C)c1cc(O)c(C(C)(C)CC)cc1O
Output line: 51

====

# Tested on: RXF 393 renal
# Test name: NCI-60 one-dose screen, 48 h (100 = growth as untreated, 0 = no growth, -100 = all killed)
# Measurement parameters: 10 µM unless noted
Compounds without any hit were thinned out: in the full panel of roughly 83,000, 20% have a hit.
growth reference
Answer format: numeric, % implied, no suffix.

Known growth results, listed for orientation:
Compound | growth [%]
CCCCCC(C)c1ccc(O)c(C)c1 (stereo not drawn) | 113
CS(=O)(=O)OC1CC(n2ccc(=O)[nH]c2=O)OC1COC(c1ccccc1)(c1ccccc1)c1ccccc1 (stereo not drawn) | 105
Clc1cc(Cl)c(Cl)nn1 | 122
CC[N+](CC)=c1ccc2nc3c(cc(N)c4ccccc43)oc-2c1 | -23.7
Oc1ccc(N=Nc2ccccn2)c(O)c1 | 43.4

Input line: Checklist item: growth tested on RXF 393 renal, entry CC1=CC(C)=Nc2ccc(Cl)cc2N1 , value?
Output line: 113

Input line: Requested read-out growth, target or system RXF 393 renal, entry CC(=O)Nc1cc(C)ccc1C
Output line: 105

Input line: Lab note: need growth for NC(=O)SCC(=O)NNc1ccccc1 on RXF 393 renal, anyone have it?
Output line: 112

Input line: Find the measured growth: item COC(=O)C1C(O)C(C)C(O)C(C)C=C(C)C2=C3C(=C(C)C(=O)c4c(O)c(c(C)c(OC(C)=O)c43)NC(=O)C(C)=C/C=C\C(C)C(O)C(C)C1O)OCO2 (stereo not drawn) , target or system RXF 393 renal.
Output line: 125

Input line: Query growth on RXF 393 renal for NNc1c2ccccc2nc2ccccc12
Output line: 72.8

Input line: Request: growth, test system RXF 393 renal, entry CCN(CC)c1ccc(NC(C(=O)c2ccccc2)c2ccccc2)cc1 (stereo not drawn)
Output line: 4.61

Input line: Identify the measured growth of O=C(/C=C/c1ccccn1)c1ccccc1 for RXF 393 renal.
Output line: 90.6

Input line: Form field - read-out: growth; system: RXF 393 renal; submitted item: COC(=O)C1=COC(C)C2C[n+]3ccc4c([nH]c5ccccc54)c3CC12 (stereo not drawn)
Output line: 112

Input line: For the record COC1OCC(O)C(O)C1O (stereo not drawn) , what value of growth is listed for RXF 393 renal?
Output line: 106

Input line: Notebook: pull reported growth for RXF 393 renal, entry CC(=O)OCC(OC(C)=O)C(OC(C)=O)C(OC(C)=O)C(OC(C)=O)C(/C=N/Nc1ccccc1)=N/Nc1ccccc1 (stereo not drawn)
Output line: 77

Input line: Give growth (RXF 393 renal) of the following compound: CCCCCCCCCCSC(=N)N
Output line: 46.1

Input line: Give growth (RXF 393 renal) of the following compound: COc1cccc2c1C(=O)c1c(O)c3c(c(O)c1C2=O)C[C@@](O)(C(C)=O)C[C@@H]3OC1CC(N)C(O)C(C)O1 (stereo partly drawn)
Output line: -46.9

Input line: Hi! What's the reported growth for CSC1SCC2C(=O)N(C)C(C(C)C)C(=O)OCC(NC(=O)c3cnc4ccccc4n3)C(=O)NC(C)C(=O)N(C)C1C(=O)N(C)C(C(C)C)C(=O)OCC(NC(=O)c1cnc3ccccc3n1)C(=O)NC(C)C(=O)N2C (stereo not drawn) on RXF 393 renal?
Output line: -0.0463

Input line: Hello, I am looking for reported growth with RXF 393 renal for CCN1/C(=C/C=C/C=C/c2sc3ccccc3[n+]2CC)Sc2ccccc21 . Could you help?
Output line: -64.4

====

# Tested on: MCF7 breast
# Test name: NCI-60 one-dose screen, 48 h
# Measurement parameters: 10 µM
About 83,000 compounds went through this panel and 20% of them were active in at least one assay; those are over-represented in the sample as a whole. The source made the active and inactive calls. The calls were made as follows: active = growth percent below 10; inactive = the rest.
Choose one outcome from this list and give only that: T for active, F for inactive

Observe how each entry below is paired with its result.
Compound | Discrete label
N=S(c1ccccc1[N+](=O)[O-])c1ccccc1[N+](=O)[O-] | T
COC(=O)C1C(O)C(C)C(O)C(C)C=C(C)C2=C3C(=C(C)C(=O)c4c(O)c(c(C)c(OC(C)=O)c43)NC(=O)C(C)=C/C=C\C(C)C(O)C(C)C1O)OCO2 (stereo not given) | F
CCCCCC(C)c1ccc(O)c(C)c1 (stereo not given) | F
COc1ccc(CC(=O)c2ccc(O)cc2O)cc1 | F

Now, please, on to the next compound.
Input line: How was CS(=O)(=O)OC1CC(n2ccc(=O)[nH]c2=O)OC1COC(c1ccccc1)(c1ccccc1)c1ccccc1 (stereo not given) classified in this test?
Output line: F

====

# System: COLO 205 colon
# Test name: NCI-60 one-dose screen, 48 h
# Measurement parameters: 10 µM
This is part of a sample that, as a whole, favours compounds with a hit. Of some 83,000 tested, about 20% had one in any assay. The source made the active and inactive calls. How the source made its calls: active means growth percent below 10; inactive means the rest.
Your answer must be one of the following: TRUE = active, FALSE = inactive

Solved entries:
Compound | Discrete label
Cc1cc(O)c(C(C)C)cc1Cl | FALSE
CC1=CC(C)=Nc2ccc(Cl)cc2N1 | FALSE
COc1ccc(CC(=O)c2ccc(O)cc2O)cc1 | FALSE

Input line: Hi, do you know how OC(CN1CCCC2CCCCC21)c1cc2ccccc2c2ccccc12 (stereo not drawn) came out in this test?
Output line: TRUE

Input line: What is the recorded call for this compound in the test? Clc1cc(Cl)c(Cl)nn1
Output line: FALSE

Input line: Check the results log: what was the call for NC1=C(Cl)C(=O)c2ccccc2C1=O ?
Output line: FALSE

Input line: Per the records of this test, what outcome belongs to O=C1C=CC(=CC=C2C=CN(CCCCCCCCCCCO)C=C2)C=C1 ?
Output line: TRUE

Input line: Answer briefly: the call reported for CCN(CC)c1ccc(NC(C(=O)c2ccccc2)c2ccccc2)cc1 (stereo not drawn) in this assay.
Output line: FALSE

Input line: # fetch the recorded call for CSC1SCC2C(=O)N(C)C(C(C)C)C(=O)OCC(NC(=O)c3cnc4ccccc4n3)C(=O)NC(C)C(=O)N(C)C1C(=O)N(C)C(C(C)C)C(=O)OCC(NC(=O)c1cnc3ccccc3n1)C(=O)NC(C)C(=O)N2C (stereo not drawn) here
Output line: TRUE

Input line: Identify the outcome logged in this assay for the compound shown: CC[N+](CC)=c1ccc2nc3c(cc(N)c4ccccc43)oc-2c1
Output line: TRUE

Input line: // param item: CCCCCC(C)c1ccc(O)c(C)c1 (stereo not drawn) ; yields the recorded call
Output line: FALSE

Input line: Called result for CCCCCCCCCCCC[N+](C)(C)Cc1ccccc1
Output line: FALSE
